- Measurement Description: Activation of ATP-sensitive potassium channel opening in albino rat aorta rings assessed as relaxation of KCl-induced contraction of aorta rings
- Type: tissue-based
Parameter: EC50 (µM)
# value in µM; strip the unit string

Molecule	EC50 / µM
CCC(C)NC1=NS(=O)(=O)c2cc([N+](=O)[O-])ccc2S1 (centres undefined)	59.9

Return reported EC50; argument: CC(NC1=NS(=O)(=O)c2cc(C(F)(F)F)ccc2S1)c1ccccc1 (racemic)
11.6

Could you do the same for CC(C)NC1=NS(=O)(=O)c2cc(Cl)ccc2N1 , please?
31.8

Could you do the same for CC(C)NC1=NS(=O)(=O)c2cnccc2S1 , please?
190

Could you do the same for CCC(C)NC1=NS(=O)(=O)c2cc(C(F)(F)F)ccc2S1 (centres undefined) , please?
38.8

Could you do the same for CC(C)NC1=NS(=O)(=O)c2cc(C#N)ccc2S1 , please?
152

Could you do the same for CC1=Nc2ccc(Cl)cc2S(=O)(=O)N1 [DIAZOXIDE] , please?
26.2

Could you do the same for CC(SC1=NS(=O)(=O)c2ccc(Cl)cc2N1)c1ccccc1 (centres undefined) , please?
5.7

Could you do the same for O=[N+]([O-])c1ccc2c(c1)S(=O)(=O)N=C(NC1CCCC1)S2 , please?
42.6

Could you do the same for CC(SC1=NS(=O)(=O)c2cc(Cl)ccc2N1)c1ccccc1 (centres undefined) , please?
5.4

Could you do the same for CC(SC1=NS(=O)(=O)c2cc(F)ccc2N1)c1ccccc1 (centres undefined) , please?
15

Could you do the same for CC(SC1=NS(=O)(=O)c2cc(Br)ccc2N1)c1ccccc1 (centres undefined) , please?
11.9

Could you do the same for CC(NC1=NS(=O)(=O)c2cc([N+](=O)[O-])ccc2S1)c1ccccc1 (centres undefined) , please?
15.9

Could you do the same for CC(C)CNC1=NS(=O)(=O)c2cc([N+](=O)[O-])ccc2S1 , please?
69.1

Could you do the same for C[C@H](NC1=NS(=O)(=O)c2cc(C(F)(F)F)ccc2S1)c1ccccc1 , please?
11.3
